tested.on: PAR2 (HT-29 cells, SLIGKV activation) (Homo sapiens, UniProt P55085)
Construct: host or cells: HT-29 cells
Sequence (P55085 26-397): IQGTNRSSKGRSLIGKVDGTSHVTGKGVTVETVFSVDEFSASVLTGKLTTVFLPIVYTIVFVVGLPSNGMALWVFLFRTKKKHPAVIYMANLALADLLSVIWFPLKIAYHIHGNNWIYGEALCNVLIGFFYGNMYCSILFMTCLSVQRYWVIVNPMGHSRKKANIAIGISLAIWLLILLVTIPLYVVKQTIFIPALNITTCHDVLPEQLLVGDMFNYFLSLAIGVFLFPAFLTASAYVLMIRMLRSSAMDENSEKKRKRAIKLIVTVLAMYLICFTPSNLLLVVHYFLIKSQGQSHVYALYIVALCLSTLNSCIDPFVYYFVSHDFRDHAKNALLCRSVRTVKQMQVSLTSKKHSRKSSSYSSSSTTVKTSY
assay.summary: Ca FLIPR TETRA assay, ANTAGONIST mode, stimulation with 8 μM SLIGKV
Type: cell-based
measurement.conditions: HT-29 cells, antagonist mode, stimulation with 8 μM SLIGKV
Records here are stratified by IC50; strata: bin 0 = under 1 nM, bin 1 = from 1 nM up to 6 nM, bin 2 = 6 nM and over

Class for `Cc1ccc(-c2cc(C(C)C)c3nc(C(=O)N4CCN(C(=O)c5ncccn5)CC4(C)C)cn3n2)cc1F` ?
bin 2

Another compound to look at: `Cc1n[nH]cc1C(=O)N1CCN(C(=O)c2cn3nc(-c4ccc(F)cc4)cc(C(C)(C)C)c3n2)C(C)(C)C1`
bin 1

Next compound: `CC(C)(C)c1cc(-c2ccccc2)nn2cc(C(=O)N3CCNC(=O)C3(C)C)nc12`
bin 1

Param item: `Cc1cc(C(=O)N2CCN(C(=O)c3cn4nc(-c5ccc(C(F)(F)F)cc5)cc(C(C)(C)C)c4n3)C(C)(C)C2)[nH]n1`
bin 0

Try this compound too: `CC(C)(C)c1cc(-c2ccc(F)cc2)nn2cc(C(=O)N3CCNCC3(C)C)nc12`
bin 2

`CC(C)c1cc(-c2ccc(F)c(Cl)c2)nn2cc(C(=O)N3CCN(C(=O)[C@H]4C[C@](O)(C(F)(F)F)C4)CC3(C)C)nc12` , same question.
bin 0

Next entry: `Cc1cc(-c2cc(C(C)C)c3nc(C(=O)N4CCNC(=O)C4(C)C)cn3n2)ccc1Cl`
bin 1

Would you mind doing `CC(C)(C)c1cc(-c2ccc(C(F)F)cc2)nn2cc(C(=O)N3CCNC(=O)C3(C)C)nc12` as well?
bin 1

Moving on to `CC(C)c1cc(-c2ccc(F)c(Cl)c2)nn2cc(C(=O)N3CCNCC3(C)C)nc12`
bin 2

`CC(C)c1cc(-c2ccc(Cl)cc2)nn2cc(C(=O)N3CCN(C(=O)[C@H]4C[C@](O)(C(F)(F)F)C4)CC3(C)C)nc12` ?
bin 0

Do the same for `CC(C)c1cc(-c2ccc(OC(F)(F)F)cc2)nn2cc(C(=O)N3CCN(C(=O)C(C)(C)O)CC3(C)C)nc12` please
bin 2

Now this one: `Cc1cccc(-c2cc(C(C)(C)C)c3nc(C(=O)N4CCN(C(=O)c5nc(C)n[nH]5)CC4(C)C)cn3n2)c1`
bin 1

Proceed to `Cc1nc[nH]c1C(=O)N1CCN(C(=O)c2cn3nc(-c4ccc(F)cc4)cc(C(C)(C)C)c3n2)C(C)(C)C1`
bin 2

Try this compound too: `Cc1ccc(-c2cc(C(C)C)c3nc(C(=O)N4CCN(C(=O)[C@H]5C[C@](O)(C(F)(F)F)C5)CC4(C)C)cn3n2)cc1`
bin 0

---

tested.on: PAR2 (HT-29 cells, SLIGKV activation) (Homo sapiens, UniProt P55085)
Construct: host or cells: HT-29 cells
assay.summary: Ca FLIPR TETRA assay, ANTAGONIST mode, stimulation with 8 μM SLIGKV
Type: cell-based
measurement.conditions: HT-29 cells, antagonist mode, stimulation with 8 μM SLIGKV
experimental.readout: pIC50
pIC50 is defined as minus the log10 of a concentration measured in mol/L.

# pIC50 lookup, item `CC(C)c1cc(-c2ccc(F)cc2)nn2cc(C(=O)N3CCN(C(=O)c4ncccn4)CC3(C)C)nc12`
7.69

Subsequent entry: `CC(C)c1cc(-c2ccc(F)cc2)nn2cc(C(=O)N3CCN(C(=O)[C@H](O)CC(C)(C)C)C[C@@H]3C)nc12`
6.82

What about this molecule? `CC(C)c1cc(-c2ccc(F)cc2)nn2cc(C(=O)N3CCN(C(=O)c4ccncc4)CC3(C)C)nc12`
7.55

Try this molecule next: `CC(C)(C)c1cc(-c2ccc(F)cc2)nn2cc(C(=O)N3CCN(C(=O)c4ncc[nH]4)CC3(C)C)nc12`
9.30

And `Cc1nc(N2CCN(C(=O)c3cn4nc(-c5ccc(C)c(F)c5)cc(C(C)(C)C)c4n3)C(C)(C)C2=O)c[nH]1` ?
8.27

`CC(C)c1cc(-c2ccc(C(F)(F)F)cc2)nn2cc(C(=O)N3CCN(C(=O)c4cccnn4)CC3(C)C)nc12` ?
7.80

`CC(C)c1cc(-c2ccc(F)c(F)c2)nn2cc(C(=O)N3CCNC(=O)C3(C)C)nc12` , same question.
8.39

`CC(C)(C)c1cc(-c2ccc(Cl)cc2)nn2cc(C(=O)N3CCN(C(=O)c4ccccn4)CC3(C)C)nc12` , same question.
9.10
